Where these numbers come from: patent US11944623B2

Study Target: Human Kv3.4 channels (Homo sapiens)
Construct: expressed in transfected cells
Sequence (Q03721 1-635): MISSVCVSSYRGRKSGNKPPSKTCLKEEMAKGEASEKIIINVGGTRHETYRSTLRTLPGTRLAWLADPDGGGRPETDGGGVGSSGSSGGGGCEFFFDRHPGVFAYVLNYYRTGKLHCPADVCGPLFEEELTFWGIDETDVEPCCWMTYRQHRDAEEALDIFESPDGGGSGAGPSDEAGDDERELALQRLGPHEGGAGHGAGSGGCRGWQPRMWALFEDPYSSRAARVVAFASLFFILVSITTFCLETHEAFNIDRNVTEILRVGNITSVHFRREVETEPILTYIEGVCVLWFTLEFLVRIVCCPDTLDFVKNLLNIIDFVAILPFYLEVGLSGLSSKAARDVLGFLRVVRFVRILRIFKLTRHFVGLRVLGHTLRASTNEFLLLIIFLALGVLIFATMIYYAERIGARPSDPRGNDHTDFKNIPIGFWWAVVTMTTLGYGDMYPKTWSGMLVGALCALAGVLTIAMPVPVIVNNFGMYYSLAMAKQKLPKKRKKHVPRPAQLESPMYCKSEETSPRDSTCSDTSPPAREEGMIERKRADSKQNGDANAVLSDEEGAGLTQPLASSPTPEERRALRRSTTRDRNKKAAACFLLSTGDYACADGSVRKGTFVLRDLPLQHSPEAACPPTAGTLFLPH
Assay Explanation: Kv3.4 Assay 2 (QPatch, HEK293)
Format: cell-based
Parameters: dose or concentration left out as unconfirmed
Test Context: peak currents did not recover to baseline on washout
Below, each entry is listed with its recorded reduction in peak Kv3.4 current.
A number alone suffices; assume %.

Worked examples, 3 compounds total:
Cc1ccc(Oc2ncc(N3C(=O)NC(C)(C)C3=O)cn2)c2c1OCC21CC1: 40
CC[C@H]1NC(=O)N(c2ccc(Oc3ccc(C)c4c3C3(CC3)CO4)nc2)C1=O: 50.0
CC[C@@]1(C)NC(=O)N(c2cnc(Oc3ccc(C)c(OC(F)(F)F)c3)nc2)C1=O: 45.4

Input: Can you share its reduction in peak Kv3.4 current? I mean this compound: `Cc1ccc(Oc2ccc(-n3c(C)n[nH]c3=O)cn2)c2c1OCC21CC1`
Output: 36

* * *

Study Target: Human Kv3.4 channels (Homo sapiens)
Construct: expressed in transfected cells
Assay Explanation: Kv3.4 Assay 2 (QPatch, HEK293)
Type: cell-based
Set-up: dose or concentration left out as unconfirmed
Experimental: Human Kv3.4 channels were stably expressed in a HEK293 cell line. Cells were used within 1-4 hours of cell preparation and internal and external physiological solutions were freshly prepared prior to the assay. […] The time-course of effect of the compounds against the hKv3.4 potassium channel was measured with repetitive voltage pulses from a holding potential of −60 mV, with pulses of 500 ms duration every 5 s to +40 mV. […] Series resistance and quality of seals were monitored during the experiments. […]
Measurement Kind: potentiation of the observed Kv3.4 current

CC[C@H]1NC(=O)N(c2ccc(Oc3ccc(C)c4c3C3(CC3)CO4)nc2)C1=O: did not potentiate
CC[C@@]1(C)NC(=O)N(c2cnc(Oc3ccc(C)c(OC(F)(F)F)c3)nc2)C1=O: did not potentiate
Cc1ccc(Oc2ncc(N3C(=O)NC(C)(C)C3=O)cn2)c2c1OCC21CC1: did not potentiate
Cc1ccc(Oc2ccc(-n3c(C)n[nH]c3=O)cn2)c2c1OCC21CC1: did not potentiate
